- Tested on: Ab ATCC 19606 (strain I)
- Protocol: MIC determination (double dilution, Mueller-Hinton broth)
- Format: cell-based, Acinetobacter baumannii
- Experimental conditions: Acinetobacter baumannii, ATCC19606; Table 1; control strain; read-out: MIC Ab ATCC 19606
Overview of reported MIC across a group of compounds:
Reported endpoint: MIC (µg/mL)

O=C(NNc1ccc(Cl)cc1)c1cnc2ccccc2n1 [Compound 13e]; 0.5
O=C(NNc1cccc(F)c1)c1ccccn1 [Compound 2a]; 2
O=C(NNc1ccc(Cl)cc1)c1ccc2ccccc2n1 [Compound 12e]; 0.5
O=C(NNc1cccc(F)c1)c1ccc(F)cn1 [Compound 3a]; 0.5
O=C(NNc1cccc(F)c1)c1ccccc1 [Compound 10a]; 0.25
O=C(NNc1cccc(F)c1)c1cccc(Br)n1 [Compound 6a]; 0.5
O=C(NNc1ccc(F)cc1)c1ccc(F)cn1 [Compound 3d]; 0.5
O=C(NNc1ccc(Cl)cc1)c1ncc(F)cc1F [Compound 7e]; 0.125
O=C(NNc1ccc(Cl)cc1)c1ccco1 [Compound 15e]; 0.5
O=C(NNc1ccc(Cl)cc1)c1nc(F)ccc1F [Compound 8e]; 0.125
O=C(NNc1ccc(Cl)cc1)c1ccc(F)cn1 [Compound 3e]; 1
O=C(NNc1ccc(Cl)cc1)c1cccc(F)n1 [Compound 5e]; 0.125
O=C(NNc1cccc(F)c1)c1cnccn1 [Compound 9a]; 0.5
O=C(NNc1cccc(F)c1)c1cc2ccccc2[nH]1 [Compound 14a]; 0.25
